The entries below come with measured log10 IC50 values attached.
# Test system: A431 cells
# test-method-notes: Cellular proliferation (Alamar Blue) assay, A431
# Type: cell-based
# protocol-conditions: Homo sapiens, A-431; A431 cells, 72 hr, Alamar Blue; read-out: A431 IC50
Friendly reminder: values = log10 of IC50, unit µM.

Here is how some compounds turned out for log10 IC50.
Provide measured log10 IC50 value, entry: C=CC(=O)Nc1ccc(F)c(Nc2nc(Nc3cnn(C)c3)ncc2Br)c1 [Compound 256]
0.01

Determine its reported log10 IC50: C=CC(=O)Nc1ccc(F)c(Nc2nc(Nc3cnn(CCN(C)C)c3)ncc2-c2ccc(Br)cc2)c1 [Compound 203]
-1.29

Let me know recorded log10 IC50 for C=CC(=O)Nc1cccc(N(C)c2nc(Nc3cnn(C)c3)ncc2-c2ccc(C(F)(F)F)cc2)c1 [Compound 229] , thanks.
-0.65

Output log10 IC50 of [2H]C([2H])([2H])n1cc(Nc2ncc(-c3ccc(C(F)(F)F)cc3)c(Nc3cc(NC(=O)C=C)ccc3F)n2)cn1 [Compound 242]
-0.89

Respond only with log10 IC50 recorded for C=CC(=O)Nc1ccc(F)c(Nc2nc(Nc3cnn(C)c3)ncc2-c2ccc(C(F)(F)C(F)(F)F)cc2)c1 [Compound 296]
-1.49

New cases:
Please give the documented log10 IC50 of C=CC(=O)Nc1ccc(F)c(Nc2nc(Nc3cnn(C)c3)ncc2C2CCN(C)C2)c1 (stereo not drawn) [Compound 227]
0.78

Provide one value: measured log10 IC50 of C=CC(=O)Nc1ccc(F)c(Nc2nc(Nc3cnn(C)c3)ncc2-c2ccc3c(cnn3C)c2)c1 [Compound 270]
-0.72

Quick one: give measured log10 IC50 for [2H]C([2H])=CC(=O)Nc1ccc(F)c(Nc2nc(Nc3cnn(C)c3)ncc2-c2ccc(C(F)(F)F)cc2)c1 [Compound 247]
0.48

* * *

# Tested on: A431 cells
# test-method-notes: Cellular proliferation (Alamar Blue) assay, A431
# Type: cell-based
# protocol-conditions: Homo sapiens, A-431; A431 cells, 72 hr, Alamar Blue; read-out: A431 IC50
With a cut-off of 100 nM, any IC50 strictly below it is called yes; any IC50 meeting it or above is called no.

Consider the following illustrative entries.
Does the reported IC50 of `C=CC(=O)Nc1ccc(F)c(Nc2nc(Nc3cnn(C)c3)ncc2-c2csc(Cl)c2)c1` stay below 100 nM?
no

Does this molecule meet the criterion IC50 < 100 nM? `C=CC(=O)Nc1ccc(F)c(Nc2nc(Nc3cn(CCN(C)C)nc3Cl)ncc2-c2ccc(C(F)(F)F)cc2)c1`
yes

IC50 under 100 nM? Item: `C=CC(=O)Nc1ccc(F)c(Nc2nc(Nc3cnn(C)c3)ncc2C2=CCN(C)C2)c1`
no

Item `C=CC(=O)Nc1ccc(F)c(Nc2nc(Nc3nccs3)ncc2-c2ccc(C(F)(F)F)cc2)c1` : IC50 beneath 100 nM, strictly?
no

Others:
Field: below-cutoff. Rule: recorded IC50 strictly less than 100 nM. Subject: `C=CC(=O)Nc1ccc(F)c(Nc2nc(Nc3cnn(C)c3)ncc2-c2cncs2)c1`
no

Does this molecule meet the criterion IC50 < 100 nM? `C=CC(=O)Nc1cc(Nc2nc(Nc3cnn(C)c3)ncc2Cl)cc(C(F)(F)F)c1`
no

Find out if reported IC50 for `C=CC(=O)Nc1cc(Br)cc(Nc2nc(Nc3cnn(C)c3)ncc2-c2ccc(CC(F)(F)F)cc2)c1` is less than 100 nM
yes

Determine if `Cn1cc(Nc2ncc(-c3ccc(C(F)(F)F)cc3)c(Nc3cc(N)ccc3F)n2)cn1` shows IC50 strictly lower than 100 nM.
no

* * *

// values below are reported GI50
# system-under-test: EGFR(D770_N771insSVD) expressing Ba/F3 stable cell line (Homo sapiens, UniProt P00533, DUP768-770, cells depend on it)
# Sequence (P00533 with tags, fused parts or gaps DUP768-770): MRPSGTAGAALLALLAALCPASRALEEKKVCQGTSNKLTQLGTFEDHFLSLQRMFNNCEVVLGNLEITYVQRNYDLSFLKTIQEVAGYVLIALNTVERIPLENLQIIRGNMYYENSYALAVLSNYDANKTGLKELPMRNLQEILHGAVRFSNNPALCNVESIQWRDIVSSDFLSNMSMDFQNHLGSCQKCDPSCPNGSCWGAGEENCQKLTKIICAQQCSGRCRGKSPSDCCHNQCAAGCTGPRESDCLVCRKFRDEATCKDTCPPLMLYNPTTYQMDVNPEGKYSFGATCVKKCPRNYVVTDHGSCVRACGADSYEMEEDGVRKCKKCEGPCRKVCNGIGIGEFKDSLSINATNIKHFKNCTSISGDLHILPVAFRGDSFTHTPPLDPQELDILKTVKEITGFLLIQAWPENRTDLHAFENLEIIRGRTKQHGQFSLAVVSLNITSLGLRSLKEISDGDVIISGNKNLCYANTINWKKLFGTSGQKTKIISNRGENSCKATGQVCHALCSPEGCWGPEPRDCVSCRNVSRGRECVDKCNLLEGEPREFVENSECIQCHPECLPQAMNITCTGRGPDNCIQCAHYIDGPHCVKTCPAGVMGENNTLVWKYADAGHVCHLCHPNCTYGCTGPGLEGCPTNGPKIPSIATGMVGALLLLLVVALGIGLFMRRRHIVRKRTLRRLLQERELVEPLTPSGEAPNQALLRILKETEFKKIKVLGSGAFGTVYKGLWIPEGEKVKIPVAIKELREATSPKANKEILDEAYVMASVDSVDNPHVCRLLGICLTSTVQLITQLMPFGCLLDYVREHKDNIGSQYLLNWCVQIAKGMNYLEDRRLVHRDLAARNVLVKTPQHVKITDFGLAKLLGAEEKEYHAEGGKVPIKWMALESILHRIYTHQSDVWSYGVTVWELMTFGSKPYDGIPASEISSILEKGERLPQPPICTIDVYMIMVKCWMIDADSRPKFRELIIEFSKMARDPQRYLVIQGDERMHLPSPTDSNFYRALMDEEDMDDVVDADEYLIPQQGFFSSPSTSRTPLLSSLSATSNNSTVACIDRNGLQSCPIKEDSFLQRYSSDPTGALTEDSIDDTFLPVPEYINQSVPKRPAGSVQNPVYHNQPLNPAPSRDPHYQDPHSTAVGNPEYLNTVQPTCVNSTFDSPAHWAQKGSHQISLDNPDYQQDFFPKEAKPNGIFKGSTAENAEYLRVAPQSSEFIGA
# test-method-notes: Cellular proliferation (Alamar Blue) assay, EGFR D770_N771insSVD Ba/F3
# Format: cell-based
# protocol-conditions: 72 hr, read-out: D770 IC50
Where a name gives a salt, the structure may show the parent alone.
Enter your answer as a number in nM; do not include the unit.

Supply GI50 value. Item: `C=CC(=O)Nc1ccc(F)c(N(c2ccccc2)c2nc(Nc3cnn(C)c3)ncc2Cl)c1`
2410

Item C=CC(=O)Nc1ccc(F)c(Nc2nc(Nc3cn(C)nc3C)ncc2-c2ccc(C(F)(F)F)cc2)c1 [Compound 135, trifluoroacetate] : provide GI50
120

Indicate its recorded GI50; the molecule in question is `Cn1cc(Nc2ncc(-c3ccc(CC(F)(F)F)cc3)c(Nc3cc(NC(=O)/C=C/CF)ccc3F)n2)cn1`
111

Others:
Note GI50 for the molecule shown: `C=CC(=O)Nc1ccc(F)c(Nc2nc(Nc3cnoc3)ncc2-c2ccc(C(F)(F)F)cc2)c1`
1240

Answer with reported GI50 of `C=CC(=O)Nc1cccc(Oc2nc(Nc3cnn(C)c3)ncc2-c2ccc(C(F)(F)F)cc2)c1`
105

Answer with the recorded GI50 for the molecule listed here: `CN(C)C/C=C/C(=O)Nc1cccc(Nc2nc(Nc3cnn(C)c3)ncc2CNc2ccccc2)c1`
1530

For the molecule `C#CC(=O)Nc1ccc(F)c(Nc2nc(Nc3cnn(C)c3)ncc2-c2ccc(C(F)(F)F)cc2)c1` , report GI50.
8460

* * *

# system-under-test: EGFR(D770_N771insSVD) expressing Ba/F3 stable cell line (Homo sapiens, UniProt P00533, DUP768-770, cells depend on it)
# test-method-notes: Cellular proliferation (Alamar Blue) assay, EGFR D770_N771insSVD Ba/F3
# Assay type: cell-based
# protocol-conditions: 72 hr, read-out: D770 IC50
Label class 1 when GI50 is strictly below 1000 nM; otherwise label class 0.

Please state whether GI50 is below 1000 nM for C=CC(=O)Nc1ccc(F)c(Nc2nc(N(C)c3cnn(C)c3)ncc2-c2cc(F)cc(OC)c2)c1 [Compound 305]
class 0

For C=CC(=O)Nc1ccc(F)c(Nc2nc(Nc3cnn(CC(C)(C)O)c3)ncc2Cl)c1 [Compound 26] , is the recorded GI50 below the cut-off of 1000 nM?
class 0

* * *

# system-under-test: EGFR (H773insNPH) expressing Ba/F3 stable cell line (Homo sapiens, UniProt P00533, DUP771-773, cells depend on it)
# Sequence (P00533 with tags, fused parts or gaps DUP771-773): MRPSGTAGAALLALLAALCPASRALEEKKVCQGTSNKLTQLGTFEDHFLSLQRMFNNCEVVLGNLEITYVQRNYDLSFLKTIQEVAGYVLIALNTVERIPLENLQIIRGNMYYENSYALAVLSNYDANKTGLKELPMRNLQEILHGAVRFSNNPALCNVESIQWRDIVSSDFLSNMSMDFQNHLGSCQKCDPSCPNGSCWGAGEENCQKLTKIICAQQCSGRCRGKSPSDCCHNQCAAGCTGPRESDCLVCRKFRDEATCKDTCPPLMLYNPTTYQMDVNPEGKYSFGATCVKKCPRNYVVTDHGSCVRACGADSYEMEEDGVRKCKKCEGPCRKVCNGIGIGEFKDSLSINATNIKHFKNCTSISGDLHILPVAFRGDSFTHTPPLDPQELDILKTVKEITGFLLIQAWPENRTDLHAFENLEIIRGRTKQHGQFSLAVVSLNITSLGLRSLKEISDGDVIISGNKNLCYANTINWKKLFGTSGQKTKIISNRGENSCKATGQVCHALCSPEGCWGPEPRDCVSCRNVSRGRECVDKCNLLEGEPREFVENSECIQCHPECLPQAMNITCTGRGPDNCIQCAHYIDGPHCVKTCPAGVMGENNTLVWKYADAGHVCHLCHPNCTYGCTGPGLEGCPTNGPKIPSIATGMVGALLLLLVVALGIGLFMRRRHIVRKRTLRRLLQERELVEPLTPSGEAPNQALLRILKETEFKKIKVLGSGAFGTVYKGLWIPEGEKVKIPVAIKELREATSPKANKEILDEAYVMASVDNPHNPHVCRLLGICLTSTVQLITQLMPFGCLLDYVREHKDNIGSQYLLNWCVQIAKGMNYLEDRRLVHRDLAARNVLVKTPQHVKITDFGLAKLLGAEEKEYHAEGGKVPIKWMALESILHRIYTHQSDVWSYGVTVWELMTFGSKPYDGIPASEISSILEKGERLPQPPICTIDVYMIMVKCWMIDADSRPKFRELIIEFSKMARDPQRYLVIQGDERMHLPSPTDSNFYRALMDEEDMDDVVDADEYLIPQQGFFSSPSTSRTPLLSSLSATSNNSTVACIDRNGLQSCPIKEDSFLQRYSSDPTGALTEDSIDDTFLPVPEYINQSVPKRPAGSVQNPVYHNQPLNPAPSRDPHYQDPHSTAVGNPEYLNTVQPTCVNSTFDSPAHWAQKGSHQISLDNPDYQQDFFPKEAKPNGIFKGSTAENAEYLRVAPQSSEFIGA
# test-method-notes: Cellular proliferation (Alamar Blue) assay, EGFR H773insNPH Ba/F3
# Type: cell-based
# protocol-conditions: 72 hr, read-out: NPH IC50
Decide using GI50 alone. Strictly below 0.05 µM: rule met. Equal to or above 0.05 µM: rule not met.

Some solved cases for reference:
hey, is GI50 for `C=CC(=O)Nc1ccc(F)c(Nc2nc(Nc3cnn(C)c3)ncc2-c2cncc(C(F)F)c2)c1` lower than 0.05 µM or not?
rule met

# strict comparison: is reported GI50 < 0.05 µM? input = `C=CC(=O)Nc1ccc(F)c(Nc2nc(Nc3cnn(C)c3)ncc2-c2ccc(OC)cc2)c1`
rule not met

***
Strictly below 0.05 µM: is that where GI50 of `C=CC(=O)Nc1ccc(F)c(Nc2nc(Nc3cnn(C4CCN(C)CC4)c3)ncc2Cl)c1` sits?
rule not met

Say whether its GI50 is strictly beneath 0.05 µM. Entry: `[2H]C([2H])=CC(=O)Nc1ccc(F)c(Nc2nc(Nc3cnn(C([2H])([2H])[2H])c3)ncc2-c2ccc(C(F)(F)F)cc2)c1`
rule met

* * *

# system-under-test: EGFR(D770_N771insSVD) expressing Ba/F3 stable cell line (Homo sapiens, UniProt P00533, DUP768-770, cells depend on it)
# test-method-notes: Cellular proliferation (Alamar Blue) assay, EGFR D770_N771insSVD Ba/F3
# Format: cell-based
# protocol-conditions: 72 hr, read-out: D770 IC50
# maps each entry to its GI50
The figure you give is taken to be in nM; do not add the unit.

Solved entries (count: 3):
Tell me GI50 reported for `C=CC(=O)Nc1ccc(F)c(Nc2nc(Nc3cnn(C)c3)ncc2-c2ccc(C#N)cc2)c1`
323

Find the measured GI50 of `C=CC(=O)Nc1cc(F)cc(Nc2nc(Nc3cnn(C)c3)ncc2-c2ccc(CC(F)(F)F)cc2)c1` and report it.
34

For `CN(C)C/C=C/C(=O)Nc1cccc(Nc2nc(Nc3cnn(C)c3)ncc2NCc2ccccc2)c1` , write its GI50.
2980

Continuing:
For the molecule `C=CC(=O)Nc1ccc(F)c(Nc2nc(Nc3nc(C)cs3)ncc2-c2ccc(C(F)(F)F)cc2)c1` , give its reported GI50.
1290

* * *

# system-under-test: HER2 (A775_G776insYVMA) expressing Ba/F3 stable cell line (Homo sapiens, UniProt P04626, DUP772-775, cells depend on it)
# Sequence (P04626 with tags, fused parts or gaps DUP772-775): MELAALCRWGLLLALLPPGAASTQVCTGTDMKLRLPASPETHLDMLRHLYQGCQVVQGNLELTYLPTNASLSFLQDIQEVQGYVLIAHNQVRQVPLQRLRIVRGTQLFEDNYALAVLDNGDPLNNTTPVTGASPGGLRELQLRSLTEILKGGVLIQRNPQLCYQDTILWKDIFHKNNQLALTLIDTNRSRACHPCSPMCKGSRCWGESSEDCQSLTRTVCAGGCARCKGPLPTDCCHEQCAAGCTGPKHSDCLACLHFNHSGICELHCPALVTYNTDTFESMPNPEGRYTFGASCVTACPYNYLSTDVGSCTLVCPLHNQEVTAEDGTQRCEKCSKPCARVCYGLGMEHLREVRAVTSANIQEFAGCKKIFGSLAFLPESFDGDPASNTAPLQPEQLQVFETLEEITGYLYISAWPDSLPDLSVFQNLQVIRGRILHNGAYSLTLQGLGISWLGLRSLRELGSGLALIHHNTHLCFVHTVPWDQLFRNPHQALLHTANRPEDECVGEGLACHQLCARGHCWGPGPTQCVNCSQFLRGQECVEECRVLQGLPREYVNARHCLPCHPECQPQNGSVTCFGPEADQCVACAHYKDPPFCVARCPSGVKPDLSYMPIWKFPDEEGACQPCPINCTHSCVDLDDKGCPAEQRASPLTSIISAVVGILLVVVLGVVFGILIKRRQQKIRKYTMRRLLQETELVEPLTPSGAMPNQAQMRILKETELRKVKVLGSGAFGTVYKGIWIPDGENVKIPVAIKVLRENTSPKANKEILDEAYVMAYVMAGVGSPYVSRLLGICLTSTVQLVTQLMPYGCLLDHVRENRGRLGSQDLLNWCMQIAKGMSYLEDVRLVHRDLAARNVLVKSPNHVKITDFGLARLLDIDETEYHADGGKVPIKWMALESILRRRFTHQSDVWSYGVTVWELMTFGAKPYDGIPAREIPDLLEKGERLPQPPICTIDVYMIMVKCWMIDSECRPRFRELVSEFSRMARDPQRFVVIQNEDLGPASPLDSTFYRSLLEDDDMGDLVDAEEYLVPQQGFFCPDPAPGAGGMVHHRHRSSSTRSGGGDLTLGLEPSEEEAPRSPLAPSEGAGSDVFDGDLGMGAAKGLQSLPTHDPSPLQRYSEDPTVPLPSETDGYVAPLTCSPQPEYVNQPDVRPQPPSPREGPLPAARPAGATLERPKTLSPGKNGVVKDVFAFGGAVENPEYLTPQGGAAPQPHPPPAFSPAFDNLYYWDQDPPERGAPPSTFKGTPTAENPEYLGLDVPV
# test-method-notes: Cellular proliferation (Alamar Blue) assay, HER2 A775_G776insYVMA Ba/F3
# Format: cell-based
# protocol-conditions: 72 hr, read-out: YVMA IC50
Counter-ions that a name gives are not always drawn.
measurement-type: GI50 (nM)
Note: unit nM is implicit; provide only the numeric part.

Solved entries (count: 5):
Supply recorded GI50 for C=CC(=O)Nc1ccc(F)c(Nc2nc(Nc3cnn(C)c3)ncc2-c2cccc(C(F)(F)F)c2)c1 [Compound 89] here.
665

For the compound C=CC(=O)Nc1ccc(F)c(Nc2nc(Nc3ccnn3C)ncc2Cl)c1 [Compound 31] , give its reported GI50.
5180

Query GI50 for C=CC(=O)Nc1cccc(Oc2nc(Nc3cn(C)nc3Cl)ncc2-c2ccc(C(F)(F)F)cc2)c1 [Compound 233]
537

Name the recorded GI50 of the item C=CC(=O)Nc1ccc(F)c(Nc2nc(Nc3cnn(C)c3)ncc2-c2ccnc(F)c2)c1 [Compound 82] in your answer.
226

Quote GI50 reported for C=CC(=O)Nc1ccc(F)c(Nc2nc(Nc3cnn(CCN(C)C)c3)ncc2-c2ccc(C(F)(F)F)cc2)c1 [Compound 72, trifluoroacetate] please.
129

More entries:
Please indicate GI50 recorded for C=CC(=O)Nc1ccc(F)c(Nc2nc(Nc3cnn(C)c3)ncc2-c2ccc(C(F)F)nc2)c1 [Compound 106]
38

Given the compound C=CC(=O)Nc1ccc(F)c(Nc2nc(Nc3cnn(C)c3)ncc2C(F)(F)F)c1 [Compound 36] , write its reported GI50.
416

Please indicate GI50 recorded for C=CC(=O)Nc1cccc(Oc2nc(Nc3cnn(C)c3)ncc2-c2ccc(C(F)(F)F)cc2)c1 [Compound 151]
354
